# target or test system: CPOX Coproporphyrinogen-III oxidase, mitochondrial (Homo sapiens)
# Construct: isoTOP-ABPP experiments performed in cell lysates (in vitro); endogenous in cells; host or cells: soluble proteome of human cancer cell lines (MDA-MB-231; Ramos and Jurkat also prepared)
# Sequence (P36551 111-454): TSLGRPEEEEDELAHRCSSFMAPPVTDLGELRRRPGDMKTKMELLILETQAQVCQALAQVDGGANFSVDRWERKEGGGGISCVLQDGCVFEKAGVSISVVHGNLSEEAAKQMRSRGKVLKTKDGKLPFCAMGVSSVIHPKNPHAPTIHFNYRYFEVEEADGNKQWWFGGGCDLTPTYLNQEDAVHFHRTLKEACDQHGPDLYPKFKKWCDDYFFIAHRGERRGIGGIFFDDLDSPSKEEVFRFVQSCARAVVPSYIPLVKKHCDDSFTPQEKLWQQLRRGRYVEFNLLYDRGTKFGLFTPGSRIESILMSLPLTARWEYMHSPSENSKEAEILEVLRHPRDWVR
# assay procedure: competitive isoTOP-ABPP
# Format: binding
# condition description: 50 uM, in vitro, sol, 231
Listed compounds paired with reported isoTOP-ABPP ratio (R) at liganded lysine P36551_K404
metric: isoTOP-ABPP ratio (R) at liganded lysine P36551_K404

{"compound": "O=C(Oc1ccc([N+](=O)[O-])cc1[N+](=O)[O-])C(c1ccccc1)(c1ccccc1)c1ccccc1 [fragment 42, 2,4-Dinitrophenyl 2,2,2-triphenylacetate]", "assay value": 1.0}
{"compound": "CC(C)(C)OC(=O)NCCCC(=O)Oc1ccc([N+](=O)[O-])cc1[N+](=O)[O-]", "assay value": 1.0}
{"compound": "O=C(Oc1ccc([N+](=O)[O-])cc1[N+](=O)[O-])c1ccc2ccccc2n1", "assay value": 1.2}
{"compound": "O=C(Oc1ccc([N+](=O)[O-])cc1[N+](=O)[O-])c1ccc(Oc2ccccc2)cc1 [fragment 39, 2,4-Dinitrophenyl 4-phenoxybenzoate]", "assay value": 1.0}
